biological target: human GPR40 (Homo sapiens, UniProt O14842); experiment: Inositol Phosphate Turnover (IP1) Assay; conditions: HEK cells stably expressing human GPR40; 60 min incubation
Sequence (O14842 whole entry): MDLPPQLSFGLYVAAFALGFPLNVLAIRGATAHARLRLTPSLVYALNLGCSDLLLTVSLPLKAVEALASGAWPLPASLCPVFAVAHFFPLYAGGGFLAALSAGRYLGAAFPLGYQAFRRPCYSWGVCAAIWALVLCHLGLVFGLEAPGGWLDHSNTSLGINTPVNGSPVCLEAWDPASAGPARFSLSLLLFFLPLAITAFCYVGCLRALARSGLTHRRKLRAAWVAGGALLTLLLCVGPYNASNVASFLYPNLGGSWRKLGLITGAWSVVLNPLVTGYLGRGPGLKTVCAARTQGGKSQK
measurementName: pEC50
The scale used: pEC50 is minus the common logarithm of the concentration in molar units.

Tell us which pEC50 value is on record for COc1cc(-c2ncc(C3CCc4ccc([C@H](C5CC5)[C@H](C)C(=O)O)cc4O3)nc2C)c(Cl)cn1 (single isomer, unassigned) [Example 13]
8.39

Tell us which pEC50 value is on record for COc1cc(-c2cnc(C3CCc4ccc([C@H](C5CC5)[C@H](C)C(=O)O)c(F)c4O3)c(C)n2)c(Cl)cn1 (single isomer, unassigned) [Example 21]
9.52

Tell us which pEC50 value is on record for CCc1nc([C@H]2CCc3ccc([C@H](C4CC4)[C@H](C)C(=O)O)cc3O2)cnc1-c1cc(OC)ncc1F [Example 23]
8.19

Tell us which pEC50 value is on record for CCOc1cc(-c2cnc(C3CCc4ccc([C@H](C5CC5)[C@H](C)C(=O)O)c(F)c4O3)c(C)n2)c(F)cn1 (single isomer, unassigned) [Example 20]
9.40

Tell us which pEC50 value is on record for COc1cc(-c2cnc(C3CCc4ccc([C@H](C5CC5)[C@H](C)C(=O)O)c(F)c4O3)c(C)n2)c(F)cn1 (single isomer, unassigned) [Example 18]
8.38

Tell us which pEC50 value is on record for COc1cc(-c2cnc(C3CCc4ccc([C@H](C5CC5)[C@H](C)C(=O)O)c(F)c4O3)c(C)n2)c(Cl)cn1 (single isomer, unassigned) [Example 22]
8.80

Tell us which pEC50 value is on record for Cc1nc(-c2cc(OCC(F)F)ncc2F)cnc1C1CCc2ccc([C@H](C3CC3)[C@H](C)C(=O)O)cc2O1 (single isomer, unassigned) [Example 7]
9.05

Tell us which pEC50 value is on record for COc1cc(-c2ncc(C3CCc4ccc([C@H](C5CC5)[C@H](C)C(=O)O)cc4O3)nc2C)c(Cl)cn1 (single isomer, unassigned) [Example 14]
7.86

Tell us which pEC50 value is on record for CCOc1cc(-c2cnc(C3CCc4ccc([C@H](C5CC5)[C@H](C)C(=O)O)cc4O3)c(C)n2)c(F)cn1 (single isomer, unassigned) [Example 9]
9.15

Tell us which pEC50 value is on record for COc1cc(-c2cnc([C@H]3C[C@H](OC)c4ccc([C@H](C5CC5)[C@H](C)C(=O)O)cc4O3)cn2)c(F)cn1 [Example 27]
8.77

Tell us which pEC50 value is on record for Cc1nc(-c2cc(OCC(F)F)ncc2F)cnc1C1CCc2ccc([C@H](C3CC3)[C@H](C)C(=O)O)cc2O1 (single isomer, unassigned) [Example 8]
9.00

Tell us which pEC50 value is on record for COc1cc(-c2ncc(C3CCc4ccc([C@H](C5CC5)[C@H](C)C(=O)O)cc4O3)nc2C)c(Cl)cn1 (single isomer, unassigned) [Example 5]
7.95

Tell us which pEC50 value is on record for COc1cc(-c2ncc(C3CCc4ccc([C@H](C5CC5)[C@H](C)C(=O)O)c(F)c4O3)nc2C)c(F)cn1 (single isomer, unassigned) [Example 15]
8.52

Tell us which pEC50 value is on record for COc1cc(-c2cnc([C@@H]3CCc4ccc([C@H](C5CC5)[C@H](C)C(=O)O)cc4O3)c(C)n2)c(Cl)cn1 (single isomer, unassigned) [Example 1]
9.22

Tell us which pEC50 value is on record for COc1cc(-c2cnc(C3CCc4ccc([C@H](C5CC5)[C@H](C)C(=O)O)c(F)c4O3)c(C)n2)c(F)cn1 (single isomer, unassigned) [Example 17]
9.52

Tell us which pEC50 value is on record for CCOc1cc(-c2ncc(C3CCc4ccc([C@H](C5CC5)[C@H](C)C(=O)O)cc4O3)nc2C)c(F)cn1 (single isomer, unassigned) [Example 3]
8.11

Tell us which pEC50 value is on record for COc1cc(-c2cnc(C3CCc4ccc([C@H](C5CC5)[C@H](C)C(=O)O)cc4O3)c(C)n2)c(C)cn1 (single isomer, unassigned) [Example 25]
8.09

Tell us which pEC50 value is on record for CCc1nc([C@@H]2CCc3ccc([C@H](C4CC4)[C@H](C)C(=O)O)cc3O2)cnc1-c1cc(OC)ncc1F [Example 24]
8.64

Tell us which pEC50 value is on record for COc1cc(-c2ncc(C3CCc4ccc([C@H](C5CC5)[C@H](C)C(=O)O)cc4O3)nc2C)c(Cl)cn1 (single isomer, unassigned) [Example 6]
8.48

Tell us which pEC50 value is on record for CCOc1cc(-c2ncc([C@H]3CCc4ccc([C@H](C5CC5)[C@H](C)C(=O)O)c(F)c4O3)nc2C)c(F)cn1 [Example 11]
8.46

====

Can you tell me pEC50 for the items I'm about to list?
target: human GPR40 (Homo sapiens, UniProt O14842); experiment: Inositol Phosphate Turnover (IP1) Assay; conditions: HEK cells stably expressing human GPR40; 60 min incubation
The scale used: pEC50 is minus the common logarithm of the concentration in molar units.

Tell us which pEC50 value is on record for CCOc1cc(-c2ncc(C3CCc4ccc([C@H](C5CC5)[C@H](C)C(=O)O)cc4O3)nc2C)c(F)cn1 (single isomer, unassigned) [Example 4]
8.16

Tell us which pEC50 value is on record for CCOc1cc(-c2cnc(C3CCc4ccc([C@H](C5CC5)[C@H](C)C(=O)O)c(F)c4O3)c(C)n2)c(F)cn1 (single isomer, unassigned) [Example 19]
8.96

Tell us which pEC50 value is on record for COc1cc(-c2cnc(C3CCc4ccc([C@H](C5CC5)[C@H](C)C(=O)O)cc4O3)c(C)n2)c(C2CC2)cn1 (single isomer, unassigned) [Example 26]
8.27

Tell us which pEC50 value is on record for CCOc1cc(-c2ncc([C@@H]3CCc4ccc([C@H](C5CC5)[C@H](C)C(=O)O)c(F)c4O3)nc2C)c(F)cn1 [Example 12]
8.37

Tell us which pEC50 value is on record for COc1cc(-c2ncc(C3CCc4ccc([C@H](C5CC5)[C@H](C)C(=O)O)c(F)c4O3)nc2C)c(F)cn1 (single isomer, unassigned) [Example 16]
8.18

Tell us which pEC50 value is on record for COc1cc(-c2cnc([C@H]3CCc4ccc([C@H](C5CC5)[C@H](C)C(=O)O)cc4O3)c(C)n2)c(Cl)cn1 (single isomer, unassigned) [Example 2]
8.89

Data provenance: patent US11225471B2
